target: Serine/threonine-protein phosphatase PP1-alpha catalytic subunit (Homo sapiens); assay: inhibition of human PP1 catalytic subunit – biochemical, fluorescence, OMFP substrate, single point, counter-screen for PP5 inhibitor project, primary screen (AID 2235); conditions: purified PP1alpha, at 6.7 µM, hits give high values
In all, about 320,000 compounds went through this assay and about 2,800 (0.88%) were called active. This is one part of a sample in which actives are shown more often than they occur.
readout.type: inhibition (%)
Entry rule: numbers only, all in %.

O=C1/C(=C/c2cccs2)CCC1C1CCCC1 (stereo unspecified)
-2.41

Query: I'd like to know its inhibition. The molecule in question is COc1ccc(C2C(C(C)=O)=C(O)C(=O)N2CCc2c[nH]c3ccccc23)cc1 (stereo unspecified)
Result: 18.3

====

target: Serine/threonine-protein phosphatase PP1-alpha catalytic subunit (Homo sapiens); test: inhibition of human PP1 catalytic subunit – biochemical, fluorescence, OMFP substrate, single point, counter-screen for PP5 inhibitor project, primary screen (AID 2235); settings: purified PP1alpha, at 6.7 µM
Hit rate of the full screen: of about 320,000 compounds, about 2,800 (0.88%) were called active.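 The calls were made as follows: active = inhibition above the mean inhibition of all tested compounds plus 3 SD, computed separately for each screening campaign (cut at about 15% in these data); inactive = the rest.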 This is one part of a sample in which actives are shown more often than they occur.
Please answer using one outcome listed in active, inactive

# example entries with known answers
NNC(=O)c1cnn(-c2ccccc2)c1C(F)(F)F
inactive
Cc1cccc2cc(CN(Cc3cccs3)C(=S)NCc3ccco3)c(=O)[nH]c12
active
Cc1c(CC(=O)N2CCN(C(=O)C3COc4ccccc4O3)CC2)c(=O)oc2c(O)c(O)ccc12 (stereo unspecified)
inactive
Cc1ccc2nc(N3CCN(C(=O)c4ccco4)CC3)sc2c1
inactive
CC(=O)Nc1ccc(S(=O)(=O)N2CCn3cccc3C2C)cc1 (stereo unspecified)
inactive

With those in mind, consider the next compound.
Query: Any idea what this test logged for `COc1ccc(-c2nn(-c3ccccc3)cc2/C=C\C(=O)Nc2ccc(C(=O)O)cc2)cc1` ?
Result: active

====

target: Serine/threonine-protein phosphatase PP1-alpha catalytic subunit (Homo sapiens) (UniProt P62136); assay: inhibition of human PP1 catalytic subunit – biochemical, fluorescence, OMFP substrate, single point, counter-screen for PP5 inhibitor project, primary screen (AID 2235); settings: purified PP1alpha, at 6.7 µM, hits give high values
Sequence (P62136 whole entry, looked up): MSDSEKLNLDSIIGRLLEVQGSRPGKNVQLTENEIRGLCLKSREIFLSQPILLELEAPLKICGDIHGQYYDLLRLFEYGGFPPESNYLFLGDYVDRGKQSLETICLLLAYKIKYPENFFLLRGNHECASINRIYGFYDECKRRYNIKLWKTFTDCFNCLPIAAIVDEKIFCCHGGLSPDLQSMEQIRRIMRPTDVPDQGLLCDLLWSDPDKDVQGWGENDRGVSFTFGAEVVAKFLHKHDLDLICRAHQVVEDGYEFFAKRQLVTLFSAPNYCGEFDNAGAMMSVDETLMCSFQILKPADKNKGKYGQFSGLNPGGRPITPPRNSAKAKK
The whole screen tested about 320,000 compounds, of which about 2,800 (0.88%) were called active. The list comes from a sample in which actives are over-represented; it also holds close analogues and randomly drawn compounds.
# inhibition per entry
Field format: number, assumed %, no unit text.

COC(=O)C1=NNC2(c3ccc(C)cc3)C(=O)N(c3cccc(C)c3C)C(=O)C12 (stereo not given)
2.4
COCCN(CCOC)S(=O)(=O)c1ccc(C(=O)Nc2nc3c(s2)CCc2ccccc2-3)cc1
22.6
C=CCN(CC=C)S(=O)(=O)c1ccc(C(=O)Nc2nc3c(s2)CCc2ccccc2-3)cc1
25.9
CC(=O)Nc1ccc(SC[C@H](Cc2ccccc2)N2CC[C@@H](C)CCC2=O)cc1
2.41
CCN(CCCNC(=O)c1ccc2c(c1)NC(=O)CN2C)c1cccc(C)c1
-0.43
C=CCN(CC=C)S(=O)(=O)c1ccc(C(=O)Nc2sc3c(c2C(N)=O)CCCCC3)cc1
-0.71
CCOc1ccc(NC(=O)CN(C)CC(=O)NC(C)c2ccccc2)cc1OCC (stereo not given)
-1.29
COCCN(CCOC)S(=O)(=O)c1ccc(/C(O)=C(\C#N)c2nc3ccccc3[nH]2)cc1
-3.73
O=C(C1CCCO1)N1CCN(S(=O)(=O)c2ccc(Br)cc2)CC1 (stereo not given)
0

Query: Return reported inhibition; argument: `O=S(=O)(NN=C1CCCCCCC1)c1ccc(Br)cc1`
Result: -0.57

====

biological target: Serine/threonine-protein phosphatase PP1-alpha catalytic subunit (Homo sapiens) (UniProt P62136); assay: inhibition of human PP1 catalytic subunit – biochemical, fluorescence, OMFP substrate, single point, counter-screen for PP5 inhibitor project, primary screen (AID 2235); settings: purified PP1alpha, at 6.7 µM, hits give high values
Out of some 320,000 compounds screened, about 2,800 (0.88%) were called active. What follows is part of a selection rich in actives, with near analogues and random picks from the rest.
Recorded inhibition, one value per entry.
Field: numeric (%). Do not append units.

Solved entries:
CN(C(=O)COC(=O)c1nc(Cl)ccc1Cl)C1CCS(=O)(=O)C1 (configuration not stated)
-2.63
Cc1cccnc1NC(=O)c1cccc(S(=O)(=O)N2CCN(c3ccc(F)cc3)CC2)c1
-3.22
CN(C(=O)COC(=O)c1cc(-c2ccco2)nc2ccccc12)C1CCS(=O)(=O)C1 (configuration not stated)
41.1
Cc1cc(C)cc(NC(=O)NCc2ccccn2)c1
-2.05
Cc1nc2cc(NC(=O)NCc3ccccc3)ccc2o1
-6.2
CCN(CC(=O)Nc1cc(Cl)ccc1C)C(=O)CN1C(=O)NC2(CCCC2)C1=O
0.75

Query: What does the record list as inhibition for `CC(C)(C)OC(=O)N1CCC(NC(=O)c2[nH]cnc2C(=O)N[C@@H](Cc2ccccc2)C(=O)OCc2ccccc2)CC1` ?
Result: 5.67

Query: Then this molecule: `COc1cc(NC(=O)COC(=O)c2cnc(C)cn2)c(C)cc1[N+](=O)[O-]`
Result: -3.47

Query: Please answer likewise for `CCCc1ccc(OCC(=O)NNC(=S)NC(=O)c2ccco2)cc1`
Result: 18.6

Query: Same lookup for `O=C(Nc1ccc(C(=O)N2CCOCC2)cc1)Nc1cccc(C(F)(F)F)c1` , please.
Result: 0.27

Query: Can you handle `CSc1ncccc1C(=O)Nc1ccc2c(c1)OCO2` next?
Result: -1.92

Query: Same thing, different molecule: `Cc1ccc2nc(N(CCN(C)C)C(=O)C3=COCCO3)sc2c1`
Result: -4.21

Query: Now this one: `CN(CCOc1ccccc1)C(=O)c1cc(-c2ccco2)nc2ccccc12`
Result: 11

Query: Another molecule to check: `O=C(CN1CCN(c2ccc(F)cc2)CC1)Nc1ccccc1`
Result: 2.42

Query: Try this molecule too: `CCOc1cc(NC(=S)NCCCOC)c(OCC)cc1NC(=O)c1ccco1`
Result: -3.32

Query: Same lookup for CC(Oc1ccc2ccccc2c1)C(=O)NNC(=S)NC(=O)c1ccco1 (configuration not stated) , please.
Result: 0.47

====

target: Serine/threonine-protein phosphatase PP1-alpha catalytic subunit (Homo sapiens); assay: inhibition of human PP1 catalytic subunit – biochemical, fluorescence, OMFP substrate, single point, counter-screen for PP5 inhibitor project, primary screen (AID 2235); details: purified PP1alpha, at 6.7 µM
Among all 320,000 compounds or so, about 2,800 (0.88%) were called active.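 How the source made its calls: active means inhibition above the mean inhibition of all tested compounds plus 3 SD, computed separately for each screening campaign (cut at about 15% in these data); inactive means the rest.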 The entries come from a sample that favours actives as a whole.
Return exactly one item of active, inactive

O=C(NCc1cccs1)c1cc(-c2ccccn2)nc2ccc(Br)cc12
inactive
COc1ccc(/C=N/NC(=O)c2cc(-c3cccc(C)c3)nc3ccccc23)cc1O
inactive
CC(=O)[C@@]12O[C@@H]1C[C@H]1[C@@H]3CC[C@H]4C[C@@H](O)CC[C@]4(C)[C@H]3CC[C@@]12C
inactive
COC(=O)N1CN(C(=O)OC)CN(C(=O)OC)C1
inactive
O=C(N/N=C/C=C/c1ccco1)c1cccs1
inactive

Query: Hi team, can someone confirm the assay call for `Cc1ccc(-c2cc(C(=O)N/N=C/C=C/c3ccco3)c3ccccc3n2)cc1C` ?
Result: active

Query: And then `CCCCn1c(SCC(=O)N2CCC(C(=O)OCC)CC2)nc2cc(S(N)(=O)=O)ccc21` , what is it?
Result: inactive

Query: What do you have for CCOc1cc(-c2nc3cc(C)ccn3c2NCC2CCCO2)ccc1O (stereo not given) ?
Result: inactive

Query: Here is the next compound: `O=C(CCCN1C(=O)/C(=C/c2cccs2)SC1=S)Nc1ccc(O)cc1`
Result: inactive

Query: Okay, and `Cc1ccc(-c2cc(C(=O)NCc3cn(C)nc3C)c3cc(Br)ccc3n2)cc1` ?
Result: active

====

target: Serine/threonine-protein phosphatase PP1-alpha catalytic subunit (Homo sapiens); experiment: inhibition of human PP1 catalytic subunit – biochemical, fluorescence, OMFP substrate, single point, counter-screen for PP5 inhibitor project, primary screen (AID 2235); details: purified PP1alpha, at 6.7 µM, hits give high values
Among all 320,000 compounds or so, about 2,800 (0.88%) were called active. Many of the other results were omitted from the sample, so actives are more common in it than they were.
# maps each entry to its inhibition
Express your answer in %, writing the number without its unit.

Use the examples below as a reference point.
Cc1onc(-c2ccccc2Cl)c1C(=O)NCCn1ccc2ccccc21
0.26
Cc1ccc(NC(=S)Nc2ncccc2C)c(C)c1
-1.13
O=C(CN1C(=O)NC(Cc2ccccc2)(Cc2ccccc2)C1=O)NCC1CCCCC1
-3.39
CC1(C)O[C@@H]2[C@H](O1)[C@@H](CO)O[C@H]2n1c(N2CCCCC2)nc2c(N)ncnc21
-3.13
Cn1c(=N)n(CC(O)c2cccs2)c2ccccc21 (stereo unspecified)
2.31

Continue with the compound presented below.
Query: Query inhibition on Serine/threonine-protein phosphatase PP1-alpha catalytic subunit (Homo sapiens) for Cn1c(=N)n(CC(O)c2ccccc2)c2ccccc21 (stereo unspecified)
Result: -1.18

These data points were gathered from PubChem BioAssay AID2235.
